tested on: HS 578T breast; test: NCI-60 one-dose screen, 48 h (100 = growth as untreated, 0 = no growth, -100 = all killed); conditions: 10 µM unless noted
This is part of a sample that, as a whole, favours compounds with a hit. Of some 83,000 tested, about 20% had one in any assay.
Flag rule - growth less than 80% flags True; the remaining entries get False.

Answered examples (3):
1. CCCCN(CCCC)CC(O)c1ccccc1 (stereo not given): False
2. CC(=O)O[C@H]1CC[C@H]2[C@@H]3CC[C@H]4CC=C(C)C[C@]4(C)[C@H]3CC[C@]12C: False
3. CC(=O)[O][Hg][CH2]C1(C)COC(C)([CH2][Hg][O]C(C)=O)CO1 (stereo not given): False

Q. API: query returns whether the molecule falls strictly under 80% in growth. Query: CNC(C)Cc1ccccc1 (stereo not given) (tested in a mixture with another compound)
A. False

Q. Now this one: [Br][Pb]([c]1ccccc1)([c]1ccccc1)[c]1ccccc1
A. True

Q. Now this one: C/C1=C/C(=O)O[C@@H]2C[C@@H](CC[C@H](C)/C=C\C=C\CC1)O[C@@](OCCc1ccccc1)([C@@H]1CSC(=O)N1)C2
A. True

Q. Now this one: C[As](=O)(O)c1ccc(C(=O)O)cc1
A. False

Q. Now this one: CN=C(NN)NN
A. False

Q. Now this one: COc1ccc(/C=C(/C(=O)N2CCCC2)c2cc(OC)c(OC)c(OC)c2)cc1N
A. True

###

Could you please report measured growth for the items listed next?
tested on: OVCAR-4 ovarian; experiment: NCI-60 one-dose screen, 48 h (100 = growth as untreated, 0 = no growth, -100 = all killed); settings: 10 µM unless noted
Compounds without any hit were thinned out: in the full panel of roughly 83,000, 20% have a hit.
Give bare numbers, in %.

For orientation, consider the following solved cases.
1) S=P(NC1CCCCC1)(N1CC1)N1CC1: 100
2) C/C(=N/OC(=O)N(C)C)c1ccc(Cl)cc1Cl: 113
3) c1ccc(-c2ccc3ccccc3[o+]2)cc1: 90.5
4) CNC(=O)Oc1cccc(OC)c1: 105
5) c1ccc(CCN2CCCCC2Cc2ccccc2)cc1 (stereo not given): 115

For every record below, what is its growth?
1. COc1ccc(OC)c(/C=C(/C)[N+](=O)[O-])c1
2. Cc1cc(N(CCCl)CCCl)ccc1C=Nc1ccc2ccccc2c1
3. S=P(Nc1ccccc1)(Nc1ccccc1)c1ccccc1
4. CC(=O)C1CCC2C3CC=C4CC(OC(=O)Cc5ccc(N(CCCl)CCCl)cc5)CCC4(C)C3CCC12C (stereo not given)

A.
64.4
83.5
104
99.4

For every record below, what is its growth?
1. ClCCN(CCCl)c1nc(Cl)c(C2CC(c3ccccc3)=NN2c2ccccc2)s1 (stereo not given)
2. NC(=O)NC(=O)CI
3. CC(C)(O)/C=C/C(=O)[C@](C)(O)[C@H]1[C@H](O)C[C@@]2(C)[C@@H]3CC=C4[C@@H](C=C(O)C(=O)C4(C)C)[C@]3(C)C(=O)C[C@]12C
4. O=C(O)c1nn(Cc2ccc(Cl)cc2)c2ccccc12
5. CCOC(=O)c1cnc(SCc2ccc(Cl)c(Cl)c2)nc1N1CC1
6. NC(=O)SCC(=O)Nc1ccc([As](=O)(O)O)cc1
7. CCN1CC2(CN(CC)C1=S)C(=O)NC(=O)NC2=O
8. CNC(=O)Oc1ccccc1-c1ccccc1

A.
87.1
94.4
-45.9
100
53.6
99.8
93.3
110

For every record below, what is its growth?
1. CC12CCC(=O)C=C1C(O)CC1C2CCC2(C)C(O)CCC12 (stereo not given)
2. NC(Cc1ccc2c(c1)OCO2)c1ccc2c(c1)OCO2 (stereo not given)
3. Cc1cc(NC(=O)/C=C/c2ccc([N+](=O)[O-])cc2)ccc1S(=O)(=O)F

A.
1. 104
2. 101
3. 103
